Each recorded value in this set is attributed to patent US8637568B2.

molecular target: human recombinant SERT (HEK293-hSERT cells) (Homo sapiens); construct: expressed in transfected cells; host or cells: HEK293 (stably transfected), whole cells; test: hSERT neurotransmitter uptake assay; format: cell-based; settings: serotonin reuptake inhibition in HEK293-hSERT cells; read-out: SERT pIC50 (converted)
Measured parameter: IC50

// known answers, use as guide
[[record]]
compound = "Cc1cc(C)n(-c2ccc(S(=O)(=O)NCC(Oc3ccc(C(F)(F)F)cc3)C3CCNC3)cc2)n1 (stereo not shown)"
measured_parameter = "IC50"
value = "≤ 10 nM"

[[record]]
compound = "CC(=O)N(C[C@@H](Oc1ccc(C(F)(F)F)cc1)[C@H]1CCNC1)S(C)(=O)=O"
measured_parameter = "IC50"
value = "≤ 10 nM"

[[record]]
compound = "COc1ccc(S(=O)(=O)NCC(Oc2ccc(C(F)(F)F)cc2)C2CCNC2)cc1 (stereo not shown)"
measured_parameter = "IC50"
value = "≤ 10 nM"

[[record]]
compound = "NS(=O)(=O)C[C@@H](Oc1ccc(C(F)(F)F)cc1)[C@H]1CCNC1"
measured_parameter = "IC50"
value = "≤ 10 nM"

[[record]]
compound = "Cn1cncc1S(=O)(=O)NC[C@@H](Oc1ccc(C(F)(F)F)cc1)[C@H]1CCNC1"
measured_parameter = "IC50"
value = "≤ 100 nM"

[[record]]
compound = "O=[N+]([O-])c1ccc(S(=O)(=O)NC[C@@H](Oc2ccc(C(F)(F)F)cc2)[C@H]2CCNC2)cc1"
measured_parameter = "IC50"
value = "≤ 10 nM"

[[record]]
compound = "O=S(=O)(NC[C@@H](Oc1ccc(C(F)(F)F)cc1)[C@H]1CCNC1)N1CCOCC1"
measured_parameter = "IC50"
value = "≤ 10 nM"

[[record]]
compound = "CS(=O)(=O)NC[C@@H](Oc1ccc(C(F)(F)F)cc1)[C@@H]1CCNC1 (stereo in doubt)"
measured_parameter = "IC50"
value = "≤ 100 nM"


Form field IC50, entry O=S(=O)(NC[C@@H](Oc1ccc(C(F)(F)F)cc1)[C@@H]1CCNC1)c1ccccc1 (stereo in doubt) : ≤ 10 nM

Form field IC50, entry "O=S(=O)(NC[C@@H](Oc1ccc(C(F)(F)F)cc1)[C@H]1CCNC1)C1CC1" : ≤ 10 nM

Form field IC50, entry CNC(=O)c1cccc(S(=O)(=O)NCC(Oc2ccc(C(F)(F)F)cc2)C2CCNC2)c1 (stereo not shown) : ≤ 10 nM

Form field IC50, entry "CCS(=O)(=O)NC[C@@H](Oc1ccc(C(F)(F)F)cc1)[C@H]1CCNC1" : ≤ 10 nM

Form field IC50, entry "CS(=O)(=O)CS(=O)(=O)NC[C@@H](Oc1ccc(C(F)(F)F)cc1)[C@H]1CCNC1" : ≤ 10 nM

Form field IC50, entry "CNS(=O)(=O)C[C@@H](Oc1ccc(C(F)(F)F)cc1)[C@H]1CCNC1" : ≤ 10 nM

Form field IC50, entry "CC(C)S(=O)(=O)NC[C@@H](Oc1ccc(C(F)(F)F)cc1)[C@H]1CCNC1" : ≤ 100 nM

Form field IC50, entry "O=S(=O)(NC[C@@H](Oc1ccc(C(F)(F)F)cc1)[C@H]1CCNC1)c1ccc(-c2ncccn2)cc1" : ≤ 10 nM

====

molecular target: human recombinant SERT (HEK293-hSERT cells) (Homo sapiens, UniProt P31645); construct: expressed in transfected cells; host or cells: HEK293 (stably transfected), whole cells; experiment: hSERT neurotransmitter uptake assay; format: cell-based; details: serotonin reuptake inhibition in HEK293-hSERT cells; read-out: SERT pIC50 (converted)
Sequence (P31645 whole entry): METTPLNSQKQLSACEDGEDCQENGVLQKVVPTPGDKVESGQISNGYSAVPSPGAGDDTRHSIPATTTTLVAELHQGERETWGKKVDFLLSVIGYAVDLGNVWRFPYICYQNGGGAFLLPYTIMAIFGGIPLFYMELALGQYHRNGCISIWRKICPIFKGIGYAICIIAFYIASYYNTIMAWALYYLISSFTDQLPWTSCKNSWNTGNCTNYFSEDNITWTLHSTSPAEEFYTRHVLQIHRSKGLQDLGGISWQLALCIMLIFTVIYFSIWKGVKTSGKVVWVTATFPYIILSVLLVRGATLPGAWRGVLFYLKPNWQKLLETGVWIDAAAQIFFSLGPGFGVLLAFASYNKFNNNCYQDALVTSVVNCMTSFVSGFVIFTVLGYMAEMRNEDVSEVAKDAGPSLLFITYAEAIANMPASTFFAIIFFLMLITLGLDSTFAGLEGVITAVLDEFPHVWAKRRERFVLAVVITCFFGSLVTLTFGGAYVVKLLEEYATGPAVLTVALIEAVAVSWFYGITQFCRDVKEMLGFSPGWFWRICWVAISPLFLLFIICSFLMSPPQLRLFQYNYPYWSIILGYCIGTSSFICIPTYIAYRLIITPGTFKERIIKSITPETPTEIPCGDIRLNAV
Measured parameter: IC50

// known answers, use as guide
[[record]]
compound = "O=S(=O)(C[C@@H](Oc1ccc(C(F)(F)F)cc1)[C@H]1CCNC1)NCc1ccccc1 [Example 5]"
value = "≤ 10 nM"

[[record]]
compound = "CS(=O)(=O)c1cccc(S(=O)(=O)NC[C@@H](Oc2ccc(C(F)(F)F)cc2)[C@H]2CCNC2)c1 [Example 3-28]"
value = "≤ 100 nM"

[[record]]
compound = "O=S(=O)(NCC(Oc1ccc(C(F)(F)F)cc1)C1CCNC1)c1ccc(-c2nnn[nH]2)cc1 (stereo not shown) [Example 3-35]"
value = "≤ 100 nM"


Attention now turns to another entry.
Form field IC50, entry CNS(=O)(=O)c1ccc(S(=O)(=O)NCC(Oc2ccc(C(F)(F)F)cc2)C2CCNC2)cc1 (stereo not shown) [Example 3-31] : ≤ 10 nM

====

Readings of IC50 for the listed molecules
biological target: human recombinant SERT (HEK293-hSERT cells) (Homo sapiens, UniProt P31645); construct: expressed in transfected cells; host or cells: HEK293 (stably transfected), whole cells; test: hSERT neurotransmitter uptake assay; assay type: cell-based; settings: serotonin reuptake inhibition in HEK293-hSERT cells; read-out: SERT pIC50 (converted)

[[record]]
structure_notation = "O=S(=O)(NC[C@@H](Oc1ccc(C(F)(F)F)cc1)[C@H]1CCNC1)c1ccc(-n2cccn2)cc1"
measured_parameter = "IC50"
value = "≤ 0.01 µM"

[[record]]
structure_notation = "O=S(=O)(NC[C@@H](Oc1ccc(C(F)(F)F)cc1)[C@H]1CCNC1)c1cnc[nH]1"
measured_parameter = "IC50"
value = "≤ 0.1 µM"


human recombinant SERT (HEK293-hSERT cells) (Homo sapiens, UniProt P31645) assay, molecule "O=S(=O)(NC[C@@H](Oc1ccc(C(F)(F)F)cc1)[C@H]1CCNC1)c1ccccc1" , recorded IC50 = ≤ 0.01 µM
